Test system: Vero E6 infected with SARS-CoV-2
experiment: inhibition of SARS-CoV-2 cytopathic effect; higher = more antiviral protection, active = above 15
measurement-parameters: 100 nM; 48 h
For each record, write down the corresponding inhibition of SARS-CoV-2 cytopathic effect.
Give bare numbers, in %.

>  <molecule>
O=C(N/N=C/c1ccc([N+](=O)[O-])o1)c1cc([N+](=O)[O-])cc([N+](=O)[O-])c1O

>  <data-value>
2.56

$$$$
>  <molecule>
O=C1c2ccccc2CCC1CNCCc1ccc(O)cc1 (centres undefined)

>  <data-value>
-2.27

$$$$
>  <molecule>
CCC(=O)O[C@H]1CC[C@H]2[C@@H]3CCC4=CC(=O)CC[C@]4(C)[C@H]3CC[C@]12C

>  <data-value>
-12.5

$$$$
>  <molecule>
CC(=O)OCC1=C(C(=O)O)N2C(=O)[C@@H](NC(=O)Cc3cccs3)[C@H]2SC1

>  <data-value>
1.37

$$$$
>  <molecule>
C[C@H]1N=C(N(C)C)N=C(N)N1

>  <data-value>
0.07

$$$$
>  <molecule>
CC(C)[C@H](NS(=O)(=O)c1ccc(-c2ccc(Br)cc2)cc1)C(=O)O

>  <data-value>
-0.06

$$$$
>  <molecule>
NS(=O)(=O)c1cc2c(cc1Cl)NC(C(Cl)Cl)NS2(=O)=O (centres undefined) [trichlormethiazide]

>  <data-value>
-10.5

$$$$
>  <molecule>
CCOc1cc(N2CCC(O)CC2)ccc1Nc1ncc2c(n1)N(C)c1ccccc1C(=O)N2C

>  <data-value>
1.28

$$$$

Go through the list and state inhibition of SARS-CoV-2 cytopathic effect for each entry.
1. CC(C)(C)NS(=O)(=O)c1cncc(-c2cc(F)c3nc(N)nn3c2)c1
2. CCN(CC)CCNC(=O)c1cc(Br)c(N)cc1OC [bromopride]
3. CC(=O)N[C@@H](CCC(N)=O)C(=O)O [aceglutamide]
4. O[C@@H](Cc1ccncc1)C(Cl)(Cl)Cl
5. CN1CCC(=C2c3ccccc3C=Cc3ccccc32)CC1
6. C[C@@H]1C[C@H]2[C@@H]3C[C@H](F)C4=CC(=O)C=C[C@]4(C)[C@@]3(Cl)[C@@H](O)C[C@]2(C)[C@H]1C(=O)COC(=O)C(C)(C)C [clocortolone-pivalate]
7. CSc1ccc2c(c1)[C@H](N1CCN(C)CC1)Cc1ccccc1S2 (racemic) [metitepine]

1. -1.19
2. -0.25
3. 6.3
4. 3.16
5. -1.02
6. -2.33
7. -0.78

Origin of measurements: the supplement of paper PMC13380429
